Endpoint Name: melting point

Solved cases (3 shown):
**Q:** Read the entry `CSC(=CC(=O)C(F)(F)F)SC` and write its reported melting point.
**A:** 97 °C

**Q:** State, in one line, measured melting point of `Clc1ccc([C@H]2Cc3cnc(Nc4ccccc4)nc3-c3ccccc32)cc1Cl`
**A:** 156 to 157 °C

**Q:** Give the reported melting point for this compound. Cc1cccc2c(=O)[nH]c(CCN3CCCC(O)C3)cc12 (stereo unspecified)
**A:** 180 to 181 °C

Provide melting point values for the following items, in order.
1. CS(=O)(=O)c1ccc(-n2nc(CNC(=O)NC3CCCCCC3)cc2-c2ccccc2)cc1
2. O=c1c(Cc2ccccn2)cc2cccnc2n1-c1cccc([N+](=O)[O-])c1
3. Clc1cccc2c1CNC(=Nc1ccccc1)CS2
4. Cc1nc2ccc(Nc3nccc(-c4ccc(N5CCNCC5)nc4)n3)cc2[nH]1
5. Cc1cc(NC2=NCCN2C)n(C)n1
6. Cc1cc(C=O)ccc1C(=O)NCC(F)(F)F

**A:**
104 to 110 °C
229 to 231 °C
150 to 152 °C
245 to 250 °C
128 to 130 °C
99 to 104 °C

* * *

Endpoint Name: melting point

Look up melting point for the entries below, preserving their order.
1. CCCCCCCCCCCCCCCCCCOc1ccc(OCc2ccccc2)c(C(=O)O)c1
2. OC1CCN(c2ncc(-c3ccc(Cl)cc3Cl)cn2)CC1
3. Cc1ccc2c(c1)c(-c1ccc(F)cc1)c(C)n2-c1ccncc1
4. CC(=O)c1c(C)nc(C)c(C(=O)OCCC#N)c1-c1cccc([N+](=O)[O-])c1
5. COC(=O)c1ccc2c(c1)CCC(C(N)=O)C2 (stereo not drawn)
6. CCCCCCCC(=O)OC(C)c1ccc(-c2ccc(OCc3ccccc3)cc2)cc1 (single isomer, unassigned; (+))

**A:**
80 to 81 °C
122 to 124 °C
172 to 174 °C
85 °C
162 to 164 °C
91 to 92 °C

Could you tell me melting point for each of these compounds? They are listed below.
1. CCC1c2c([nH]c(=O)c(O)cc2=O)CC(Cl)C1Cl (stereo not drawn)
2. COc1cc(N2CCN(C)CC2)c2oc(C(=O)Nc3ccc(N4CCN(C(=O)CCO)CC4)cc3)cc(=O)c2c1

**A:**
["197 °C", "195 to 197 °C"]

* * *

Please provide measured melting point for the entries that follow.

Sample answers from the record:
**Q:** Look up and report measured melting point for this entry: `O=C1Nc2ccc(I)cc2C1=NNC(=O)C1CCN(Cc2cccnc2)CC1`
**A:** 125 °C

**Q:** Recall and state the measured melting point for `CCOC(=O)c1cc(O)c(C(=O)c2ccc(C)cc2)c([N+](=O)[O-])c1` .
**A:** 145 to 147 °C

**Q:** Specify reported melting point for the molecule shown: OC(CNCCCn1cnc2ccccc21)c1ccc(OCc2ccccc2)cc1 (stereo not drawn)
**A:** 83 to 85 °C

Quick one: give me melting point for each item below, same order please.
1. CC(=NOCCO)c1ccc(-c2ccc(C(F)(F)F)cc2)cc1
2. COC(=O)[C@H](CC(C)C)NC(=O)c1ccc2c(c1)Nc1ccccc1S2
3. Nc1cc(Br)ccc1-c1ccccc1F
4. CCc1nnc(/C=C/c2cn(-c3ccccc3)nc2OCc2ccc(OCc3nc(-c4ccco4)oc3C)c(OC)c2)o1

**A:**
["108 to 111 °C", "160 to 161 °C", "40 to 42 °C", "183 to 184 °C"]

For every item in the list below, what is its measured melting point?
1. CCSC1=CCC2C3CCC4=CC(=O)C=CC4(C)C3C(O)CC12C (stereo not drawn)
2. CC1(C)COc2cc(C(F)(F)F)ccc2C(O)(c2ccccn2)C1 (stereo not drawn)
3. COc1cc(OC)nc(NC(=O)NS(=O)(=O)c2nccn2-c2ccccn2)n1

**A:**
216 to 218 °C
78 °C
146 to 149 °C

* * *

Endpoint Name: melting point

**Q:** Query melting point for `O=[N+]([O-])c1ccc(OCc2ccccc2)c(CO)c1`
**A:** 81 to 83 °C

**Q:** Tell me measured melting point for `COc1ccc(-c2nc(-c3ccn4c3CCC4)[nH]c2-c2ccc(OC)cc2)cc1` please.
**A:** 238 °C

**Q:** Give melting point for `O=C(Nc1c(C(O)(C(F)(F)F)C(F)(F)F)ccc2ccccc12)c1cccnc1`
**A:** 214 to 215 °C

**Q:** Fill in reported melting point for this entry: `O=C(NCCCCCCO)OC1CCN(C(=O)OCc2ccccc2)CC1`
**A:** 50 to 52 °C

Please give melting point for each item listed below.
1. CCCN(c1nc(-c2ccc(OC)cc2Cl)c(C)s1)c1cc(-c2ccccc2C)ccc1OC
2. CCOc1ccccc1-c1nc2c(OC)cccc2c(=O)[nH]1

**A:**
["55 °C", "198 to 199 °C"]

# per-item lookup of melting point; items listed below
1. CCC(Oc1ccccc1Cl)C(=O)OC1CC(O)C=C2C=CC(C)C(CCC3CC(O)CC(=O)O3)C21 (mixture of isomers)
2. O=C1c2ccccc2C(=O)N1C[C@H]1COc2ccc(Cl)cc2O1
3. C[Si](C)(C)C#Cc1ccc2c(c1)NC(=O)CO2
4. CC(=O)N1CCc2ccc(/C=C/CCN3CCC(c4ccc(Cl)cc4)CC3)cc2CC1

**A:**
["145 to 147 °C", "174 to 176 °C", "142 °C", "153 to 155 °C"]

* * *

Endpoint Name: melting point

**Q:** Input c1cncc(C2=NNC(c3cccnc3)S2)c1 (centres undefined) , output reported melting point.
**A:** 77 to 78 °C

**Q:** Indicate the recorded melting point value for this molecule: `O=c1cc(C(F)(F)F)ccn1-c1c(Cl)cc(C(Cl)Cl)cc1Cl`
**A:** 176 to 177 °C

**Q:** Output measured melting point for this item: `COC(=O)C(=CN(C)C)N(C)c1cc(-c2ccc(Cl)c(Cl)c2)n(C)n1`
**A:** 113 to 114 °C

**Q:** Note down melting point recorded for C#Cc1ccc2c(c1)C=C(C(=O)O)C(C(F)(F)F)N2 (centres undefined)
**A:** 259 to 268 °C

**Q:** Output melting point of `CSCC[C@H](NC(=O)OC(C)(C)C)C(=O)NCC(=O)Oc1c(Cl)c(Cl)c(Cl)c(Cl)c1Cl`
**A:** 169 to 171 °C

**Q:** Answer with reported melting point of `O=Cc1cc(Cl)ccc1OC/C=C/CCl`
**A:** 62 to 63 °C

// each molecule listed below needs its melting point
1. COC(=O)c1sc(Cl)cc1N
2. CNn1c(SC)nnc(C(C)C2CC2)c1=O (centres undefined)

**A:**
1. 99 to 101 °C
2. 66 to 68 °C

I would be grateful if you could provide melting point for each of the following entries.
1. CC1(C)CC(N(CCO)S(C)(=O)=O)c2cc(OCc3ccccc3)ccc2O1 (centres undefined)
2. Cc1cc(-c2cc(O)c(SCc3ccccc3)c(=O)o2)cc(C)c1O
3. CC1CN(c2ccccc2)N=C1N (centres undefined)
4. O=[N+]([O-])c1cc(S(=O)(=O)C(F)(F)F)c(-c2ccc(Cl)cc2)[nH]1

**A:**
1. 78 to 80 °C
2. 174 to 176 °C
3. 83 to 84 °C
4. 174 to 180 °C

Hi, could you look up melting point for each item in my list?
1. CS(=O)c1c[nH]c2c(Sc3nc4cc(Cl)ccc4[nH]3)ccc([N+](=O)[O-])c12 (centres undefined)
2. C#CCOc1cccc(-c2nc3ncccc3[nH]2)c1OC
3. CC(=O)Nc1ccc2c(c1)C(=O)c1cc(NC(C)=O)ccc1C2=O

**A:**
243 to 246 °C
262 °C
340 °C

Give melting point for each of the items listed below.
1. Cc1cc(C#N)cnc1Oc1c(Cl)cc(NC(=O)NC(=O)c2c(Cl)cccc2Cl)cc1Cl
2. CC(=C\c1ccccc1)/C=C(\C)C(=O)NCCCCCC(=O)NO
3. COc1ccc(C(=O)c2sccc2O)cc1
4. Brc1cnc(SCc2cccs2)nc1

**A:**
1. 245 to 246 °C
2. 120 to 122 °C
3. 86 to 87 °C
4. 87 °C

* * *

Would you mind telling me the reported melting point of each entry?

Some compounds with recorded melting point:
**Q:** Quick one: give measured melting point for `COc1cccc(OC)c1C(=O)Nc1nnc(C(C)(C)CSC)s1`
**A:** 165 to 167 °C

**Q:** Give melting point for `CSc1ccc2c3c(cccc13)C(=O)N2`
**A:** 167 to 172 °C

**Q:** For the compound `COc1cccc(C(=C/C=C/C(=O)NCCCCc2cccnc2)c2cccc(OC)c2)c1` , give its measured melting point value.
**A:** 69 to 73 °C

**Q:** Please report the measured melting point for `COc1ccccc1Nc1nnc(Cc2ccncc2)c2ccccc12`
**A:** 190 to 191 °C

I'm hoping you can list melting point for every compound here, please.
1. COc1ccc(N2CCN(n3cnn(C)c3=O)CC2)cc1
2. O=c1nc(NCCCOc2cc(CN3CCCCC3)ccn2)c2ccccc2[nH]1
3. O=C(O)C=Cc1ccc(Cn2ccnc2)c(Cl)c1
4. O=C(c1ccc2c(c1)OC(c1cccc(Cl)c1)(c1cccc(Cl)c1)O2)N1CCCCC1

**A:**
178 °C
189 to 192 °C
227 to 229 °C
54 °C
